// provenance: ChEMBL document CHEMBL3507680

- Method summary: Human HepG2 cell viability assay in 384 well format
- Assay type: toxicity, cell-based
- Set-up: dose 125 nL, time 70.5 hour; concentration not given beside the values
- Applied conditions: HepG2 cells, read-out: Inhibition
Attribute measured: cytotoxicity at 70.5 h (%)
Use % as the unit, but write only the number.

Below, each entry is followed by its recorded cytotoxicity at 70.5 h result.
> print(dat)
                                   molecule      attribute.measured  quantitative.result
1  CNc1nc(C)c(C(=O)N2CCCCC2CN2CCCCCC2)s1 (configuration not stated)  cytotoxicity at 70.5 h                -17.9
2  Cc1cnn(C(C)C2CC2)c1NC(=O)c1ccncc1 (configuration not stated)  cytotoxicity at 70.5 h                -8.36
3         Cc1ccc2nnc(C(=O)NCCCn3cccn3)nc2c1  cytotoxicity at 70.5 h                 6.08
4  CCOCC1CN(C(=O)N(C)C)Cc2nnn(CC3CC3)c21 (configuration not stated)  cytotoxicity at 70.5 h                 4.98
5          Cc1nc(NCc2cccnc2)c2c(n1)c(C)nn2C  cytotoxicity at 70.5 h                -11.5
6  O=S1(=O)NC(c2ccnc(N3CCOCC3)n2)=Nc2ccccc21  cytotoxicity at 70.5 h                -9.53
7   O=c1ccn(Cc2nc(-c3ccccc3F)cs2)c(=O)[nH]1  cytotoxicity at 70.5 h                 0.45
8  CN1CCn2c(-c3ccccc3)cnc2C12CCN(CC1CC1)CC2  cytotoxicity at 70.5 h                -3.45

Query: Requested read-out: cytotoxicity at 70.5 h. Entry: "CN(Cc1nnc2ccccn12)C(=O)CCNC(=O)C(C)(C)C"
Reply: 17.1

Query: State the recorded cytotoxicity at 70.5 h for this entry: O=C(NCc1ccncc1)C1CN(c2nc3ccccc3s2)CCN1 (configuration not stated)
Reply: -0.512

Query: Using the record for Cc1nc(C)n(CC2CCCN(Cc3ccc(F)cc3C#N)C2)n1 (configuration not stated) , report its cytotoxicity at 70.5 h.
Reply: -1.49

Query: What value of cytotoxicity at 70.5 h has been recorded for this entry: Cc1n[nH]c(C)c1-c1nccnc1CC1CCCN(C)C1 (configuration not stated)
Reply: -7.42
